Target: UniProtKB P06700
Sequence (P06700 whole entry): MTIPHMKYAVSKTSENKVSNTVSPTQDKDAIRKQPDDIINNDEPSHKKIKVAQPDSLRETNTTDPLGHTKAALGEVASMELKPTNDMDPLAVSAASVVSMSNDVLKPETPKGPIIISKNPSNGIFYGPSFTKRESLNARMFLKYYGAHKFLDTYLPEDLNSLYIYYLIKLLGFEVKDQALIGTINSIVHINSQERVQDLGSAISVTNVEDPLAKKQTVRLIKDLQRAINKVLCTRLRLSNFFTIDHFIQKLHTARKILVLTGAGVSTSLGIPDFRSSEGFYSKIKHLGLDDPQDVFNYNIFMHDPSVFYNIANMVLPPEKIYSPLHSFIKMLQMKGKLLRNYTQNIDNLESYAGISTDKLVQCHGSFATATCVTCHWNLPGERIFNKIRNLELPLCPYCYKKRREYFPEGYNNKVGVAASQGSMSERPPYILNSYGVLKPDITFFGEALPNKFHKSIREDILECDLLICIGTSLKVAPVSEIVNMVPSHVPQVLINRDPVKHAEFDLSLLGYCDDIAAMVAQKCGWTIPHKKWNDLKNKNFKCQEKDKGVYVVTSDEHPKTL
Assay: Inhibition of yeast TEL::-URA3 Sir2 assessed as growth inhibition of yeast at 50 uM after 24 to 48 hrs
# if value of inhibition reaches 30%, tag MET; if it stays below, tag NOT MET

>  <smilesRepresentation>
CC1(C)CC(=O)C2=C(C1)N(c1ccccc1I)C1=C(C(=O)CC(C)(C)C1)C2c1cccc(O)c1

>  <category>
NOT MET

$$$$
>  <smilesRepresentation>
CC1(C)CC(=O)C2=C(C1)N(c1ccc(C#N)cc1)C1=C(C(=O)CC(C)(C)C1)C2c1cccc(O)c1

>  <category>
NOT MET

$$$$
>  <smilesRepresentation>
CC1(C)CC(=O)C2=C(C1)N(c1ccccc1)C1=C(C(=O)CC(C)(C)C1)C2c1ccccc1O

>  <category>
NOT MET

$$$$
>  <smilesRepresentation>
CC1(C)CC(=O)C2=C(C1)N(c1ccc(C(F)(F)F)cc1)C1=C(C(=O)CC(C)(C)C1)C2c1cccc(O)c1

>  <category>
NOT MET

$$$$
>  <smilesRepresentation>
CC1(C)CC(=O)C2=C(C1)N(c1ccc(I)cc1)C1=C(C(=O)CC(C)(C)C1)C2c1cccs1

>  <category>
NOT MET

$$$$
>  <smilesRepresentation>
CCOC(=O)c1c(N2C3=C(C(=O)CC(C)(C)C3)C(c3cccs3)C3=C2CC(C)(C)CC3=O)sc2c1CCCC2

>  <category>
NOT MET

$$$$
>  <smilesRepresentation>
CC1(C)CC(=O)C2=C(C1)N(c1ccc(F)cc1)C1=C(C(=O)CC(C)(C)C1)C2c1cccc(F)c1

>  <category>
NOT MET

$$$$
>  <smilesRepresentation>
CC1(C)CC(=O)C2=C(C1)N(c1ccc(Br)cc1)C1=C(C(=O)CC(C)(C)C1)C2c1ccc2ccccc2c1

>  <category>
NOT MET

$$$$
>  <smilesRepresentation>
CC1(C)CC(=O)C2=C(C1)N(c1ccc(F)cc1)C1=C(C(=O)CC(C)(C)C1)C2c1cccc(O)c1

>  <category>
MET

$$$$
>  <smilesRepresentation>
CC1(C)CC(=O)C2=C(C1)N(c1ccc(I)cc1)C1=C(C(=O)CC(C)(C)C1)C2c1cccc([N+](=O)[O-])c1

>  <category>
MET

$$$$
>  <smilesRepresentation>
CC1(C)CC(=O)C2=C(C1)N(c1ccc(Br)cc1)C1=C(C(=O)CC(C)(C)C1)C2c1cccc(O)c1

>  <category>
MET

$$$$
>  <smilesRepresentation>
CC1(C)CC(=O)C2=C(C1)N(c1ccc(I)cc1)C1=C(C(=O)CC(C)(C)C1)C2c1cccc(O)c1

>  <category>
MET

$$$$
>  <smilesRepresentation>
CC(=O)c1ccc(N2C3=C(C(=O)CC(C)(C)C3)C(c3cccc(O)c3)C3=C2CC(C)(C)CC3=O)cc1

>  <category>
NOT MET

$$$$
